Biological target: T1, ECF31_34
T1 chain: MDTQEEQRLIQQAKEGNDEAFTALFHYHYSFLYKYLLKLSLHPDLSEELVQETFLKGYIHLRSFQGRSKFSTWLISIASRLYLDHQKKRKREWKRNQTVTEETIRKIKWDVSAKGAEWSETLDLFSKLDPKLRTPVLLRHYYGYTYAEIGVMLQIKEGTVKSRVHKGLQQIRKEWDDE
parameter_measured: fold repression

State the recorded fold repression for this entry: AS33_423 (protein) MMAMSNTMPDPREPGDVEALLPWYAAGTLNARDARRVADALDRDPALARQYAVILEEYASTIELNESLGAPSSRAMQKLFAAIDAEPARAPGAGQGLGARFAGFFAGLSPKALAWSASVAGLALLLQAGLIGALLTWPHAAPVQTAAYQPQREVARAPASSPAPATVSPPAAAMADRAADAGKSTPPMVMAERSGGPVVRSLAPQSGPRVLVKFAPEARASEIAALLDQYNAVVVDSSRGGLFRLQFGTQSLSKQDQETLIGRLQKEPVVSVVLSAP
8.35

// data source = paper PMC3817407
